test system: Escherichia coli ATCC 25922; test: MIC, broth microdilution (CLSI), reference strain; conditions: CAMHB
Numbered stars: 1 amine (or outer) side, 2 acyl side, 3 side chain; on linkers, the order of the positions; unused ones are H or OH. Square brackets hold non-standard residues; d marks the D form. Peptide text beside a SMILES is read from it. Dab(3S-OH) = NC[C@H](O)[C@H](N)C(=O)O; Ethylenediamine = C(CN[*:2])N[*:1]; ΔZArg = N=C(N)NCC/C=C(\N)C(=O)O; dOrn = NCCC[C@@H](N)C(=O)O; hSer = N[C@@H](CCO)C(=O)O; Aze = O=C(O)[C@@H]1CCN1; Dab = NCC[C@H](N)C(=O)O
ASSAY_READOUT: Ec: MIC Escherichia coli ATCC 25922

// known answers, use as guide
MOLECULE	ASSAY_READOUT	REPORTED_VALUE
CC(C)[C@H](NC(=O)[C@@H](NC(=O)[C@@H](N)CCCCN)[C@@H](O)CN)C(=O)NCC(=O)N[C@H](CCCN)C(=O)N1CCC[C@H]1C(=O)N[C@@H](Cc1cnc[nH]1)C(=O)N[C@@H](CCCCN)C(=O)N/C(=C\CCNC(=N)N)C(=O)O [212.2] (H-K[Dab(3S-OH)]VG[dOrn]PHK[ΔZArg]-OH)	Ec: MIC Escherichia coli ATCC 25922	− (>32 μg/mL)
CSCC[C@H](NC(=O)[C@@H]1CCCN1C(=O)[C@@H](CCCN)NC(=O)CNC(=O)[C@H](C)NC(=O)[C@@H](NC(=O)[C@@H](N)CCCCN)[C@@H](O)CN)C(=O)N[C@@H](CCCCN)C(=O)N/C(=C\CCNC(=N)N)C(=O)O [24.131] (H-K[Dab(3S-OH)]AG[dOrn]PMK[ΔZArg]-OH)	Ec: MIC Escherichia coli ATCC 25922	+ (≤32 μg/mL)
C[C@H](NC(=O)[C@@H](NC(=O)[C@@H](N)CCCCN)[C@@H](O)CN)C(=O)NCC(=O)N[C@H](CCCN)C(=O)N1CCC[C@H]1C(=O)N[C@@H](CCO)C(=O)N[C@@H](CCCCN)C(=O)N/C(=C\CCNC(=N)N)C(=O)O [24.129] (H-K[Dab(3S-OH)]AG[dOrn]P[hSer]K[ΔZArg]-OH)	Ec: MIC Escherichia coli ATCC 25922	− (>32 μg/mL)
C[C@H](NC(=O)[C@@H](NC(=O)[C@@H](N)CCCCN)[C@@H](O)CN)C(=O)NCC(=O)N[C@H](CCCN)C(=O)N1CC[C@H]1C(=O)N[C@@H](Cc1cnc[nH]1)C(=O)N[C@@H](CCCCN)C(=O)N/C(=C\CCNC(=N)N)C(=O)O [24.73] (H-K[Dab(3S-OH)]AG[dOrn][Aze]HK[ΔZArg]-OH)	Ec: MIC Escherichia coli ATCC 25922	+ (≤32 μg/mL)
C[C@H](NC(=O)[C@H](CCN)NC(=O)[C@@H](N)CCCCN)C(=O)NCC(=O)N[C@H](CCCN)C(=O)N1CCC[C@H]1C(=O)N[C@@H](Cc1cnc[nH]1)C(=O)N[C@@H](CCCCN)C(=O)N/C(=C\CCNC(=N)N)C(=O)N[C@@H](CCCCN)C(=O)NCCN [14.6] (H-K[Dab]AG[dOrn]PHK[ΔZArg]K-Ethylenediamine)	Ec: MIC Escherichia coli ATCC 25922	+ (≤32 μg/mL)

Sample CC(=O)NCC[C@H](NC(=O)[C@@H](NC(=O)[C@@H](N)CCCCN)[C@@H](O)CN)C(=O)NCC(=O)N[C@H](CCCN)C(=O)N1CCC[C@H]1C(=O)N[C@@H](Cc1cnc[nH]1)C(=O)N[C@@H](CCCCN)C(=O)N/C(=C\CCNC(=N)N)C(N)=O [21.3] (H-K[Dab(3S-OH)][Dab](Ac)G[dOrn]PHK[ΔZArg]-NH2) , system: Escherichia coli ATCC 25922. Its Ec: MIC Escherichia coli ATCC 25922 is − (>32 μg/mL)
